System: 4T1
PROCEDURE DETAILS: cells
Format: cell-based
STATED CONDITIONS: Mus musculus, 4T1, 24 h, read-out: IC50 4T1 24 h
Mark y only when IC50 stays strictly below 1000 nM. Values equal to the cut-off are n.

Past entries and their recorded results:
INSERT INTO measurements (compound_structure_string, measured_on, label) VALUES
  ('O=C(Nc1ccccc1[As]1SCCCS1)c1ccc(F)cc1', '4T1', 'y'),
  ('COc1cc(C(=O)Nc2ccccc2[As]2SCCCS2)cc(OC)c1OC', '4T1', 'y'),
  ('COc1ccc(C(=O)Nc2ccc([As]3SCCCS3)cc2)cc1OC', '4T1', 'n'),
  ('COc1cc(C(=O)Nc2ccc([As]3SCCCS3)cc2)cc(OC)c1OC', '4T1', 'n'),
  ('CCc1ccc(C(=O)Nc2ccc([As]3SCCCS3)cc2)cc1', '4T1', 'n'),
  ('COc1ccc(C(=O)Nc2ccccc2[As]2SCCCS2)cc1OC', '4T1', 'y'),
  ('O=C(Nc1ccccc1[As]1SCCCS1)c1ccc2c(c1)OCO2', '4T1', 'y');

We now examine a further compound.
**Q:** State whether 1000 nM exceeds IC50 recorded for Cc1ccc(C(=O)Nc2ccc([As]3SCCCS3)cc2)cc1 .
**A:** n

----------
System: Molm-13
PROCEDURE DETAILS: cells
Assay type: cell-based
STATED CONDITIONS: Homo sapiens, MOLM-13, 48 h, read-out: IC50 Molm 48 h
We begin with a simple list: items and their reported pIC50.
Recall that pIC50 is obtained by taking minus log10 of the concentration measured in molar.

Below are worked cases with known answers.
INSERT INTO assay_data (molecule, measured_on, quantity_measured, recorded_value) VALUES
  ('COc1ccc(C(=O)Nc2ccccc2[As]2SCCCS2)cc1OC [DAZ5]', 'Molm-13', 'pIC50', 6.49),
  ('COc1ccc(C(=O)Nc2ccc([As]3SCCCS3)cc2)cc1OC [DAZ2]', 'Molm-13', 'pIC50', 6.12);

# input for lookup
// molecule CC(=O)Oc1ccc(C(=O)Nc2ccc([As]3SCCCS3)cc2)cc1 [AZ2] , assay Molm-13, pIC50 value: 6.00

----------
System: Molm-13
PROCEDURE DETAILS: cells
Type: cell-based
STATED CONDITIONS: Homo sapiens, MOLM-13, 48 h, read-out: IC50 Molm 48 h
QUANTITY MEASURED: pIC50
Recall that pIC50 is obtained by taking minus log10 of the concentration measured in molar.

Below are worked cases with known answers.
INSERT INTO results (compound_structure_string, measured_on, quantity_measured, recorded_value) VALUES
  ('COc1cc(C(=O)Nc2ccc([As]3SCCCS3)cc2)cc(OC)c1OC', 'Molm-13', 'pIC50', 5.82),
  ('COc1cc(C(=O)Nc2ccccc2[As]2SCCCS2)cc(OC)c1OC', 'Molm-13', 'pIC50', 6.15),
  ('CCc1ccc(C(=O)Nc2ccc([As]3SCCCS3)cc2)cc1', 'Molm-13', 'pIC50', 5.99);

Reported pIC50 of O=C(Nc1ccc([As]2SCCCS2)cc1)c1ccc(F)cc1 : 6.00

Reported pIC50 of COc1cc(C(=O)Nc2ccc([As]3SCCCS3)cc2)cc(OC)c1O : 6.22

Reported pIC50 of Cc1ccc(C(=O)Nc2ccc([As]3SCCCS3)cc2)cc1 : 6.10

Reported pIC50 of O=C(Nc1ccccc1[As]1SCCCS1)c1ccc2c(c1)OCO2 : 6.62

Reported pIC50 of O=C(Nc1ccccc1[As]1SCCCS1)c1ccc(F)cc1 : 6.30

Reported pIC50 of O=C(Nc1ccc([As]2SCCCS2)cc1)c1ccc2c(c1)OC(F)(F)O2 : 6.15

Reported pIC50 of O=C(Nc1ccc([As]2SCCCS2)cc1)c1ccc2c(c1)OCO2 : 6.12
